- target.of.assay: human Cot/Tpl2 kinase (Homo sapiens, UniProt P41279)
- Construct: human Cot/Tpl2 kinase construct encoding residues 30-398; 6His (N); made in house; host or cells: Sf9 insect cells (baculovirus system, BD Biosciences)
- Sequence (P41279 30-398): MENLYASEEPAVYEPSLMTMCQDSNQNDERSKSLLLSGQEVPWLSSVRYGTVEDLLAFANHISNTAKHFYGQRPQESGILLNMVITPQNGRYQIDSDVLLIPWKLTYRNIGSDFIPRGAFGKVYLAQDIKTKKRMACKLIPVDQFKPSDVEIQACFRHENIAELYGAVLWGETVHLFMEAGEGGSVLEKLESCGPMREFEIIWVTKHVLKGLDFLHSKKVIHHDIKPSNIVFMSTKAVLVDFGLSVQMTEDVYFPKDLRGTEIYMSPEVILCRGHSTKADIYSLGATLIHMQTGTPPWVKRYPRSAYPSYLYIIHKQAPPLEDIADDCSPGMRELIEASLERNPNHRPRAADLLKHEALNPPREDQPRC
- protocol.description: Tpl2/Cot kinase assay, GST-MEK1 phosphorylation detected by ELISA (DELFIA Eu)
- Format: biochemical
- assay.conditions: Table 2; additional representative compounds
observation.type: pIC50
Give bare numbers, as −log10 of the molar value.

Worked cases, answers included:
- molecule: "CC(C)(C)Nc1c(C#N)cnc2cnc(NCc3cccnc3)cc12 [Example 110]"
  quantitative.readout: 6.20
- molecule: "N#Cc1cnc2cnc(Nc3c[nH]cn3)cc2c1Nc1ccc(F)c(Cl)c1 [Example 140]"
  quantitative.readout: 7.10
- molecule: "N#Cc1cnc2cnc(F)cc2c1Nc1ccc(Cc2ccccc2)cc1 [Example 106]"
  quantitative.readout: 6.52
- molecule: "N#Cc1cnc2cnc(NCCc3ccc(S(N)(=O)=O)cc3)cc2c1Nc1ccc(F)c(Cl)c1 [Example 120]"
  quantitative.readout: 6.64

In plain terms, N#Cc1cnc2cnc(NCc3ccccn3)cc2c1Nc1ccc(F)c(Cl)c1 [Example 123] has a documented pIC50 of 6.89

---

- target.of.assay: human Cot/Tpl2 kinase (Homo sapiens)
- Construct: human Cot/Tpl2 kinase construct encoding residues 30-398; 6His (N); made in house; host or cells: Sf9 insect cells (baculovirus system, BD Biosciences)
- protocol.description: Tpl2/Cot kinase assay, GST-MEK1 phosphorylation detected by ELISA (DELFIA Eu)
- Format: biochemical
- assay.conditions: Table 1; 0.4 nM Tpl2, 35 nM GST-MEK1, 50 uM ATP, 1 h at 30° C.
Exercise: state measured IC50 for each of the compounds provided.
Numbers only, in µM.

Worked cases, answers included:
- compound: "C[C@@H](Nc1cc2c(Nc3cc(Cl)cc(Cl)c3)c(C#N)cnc2cn1)c1ccccc1 [Example 68]"
  IC50, µM: 0.94
- compound: "CN1CCN(CCCNc2cc3c(Nc4ccc(F)c(Cl)c4)c(C#N)cnc3cn2)CC1 [Example 45]"
  IC50, µM: 20
- compound: "Cc1ccc(Nc2c(C#N)cnc3cnc(N[C@H](C)c4ccccc4)cc23)cc1Br [Example 65]"
  IC50, µM: 6.2
- compound: "CC[C@@H](Nc1cc2c(Nc3ccc(F)c(Cl)c3)c(C#N)cnc2cn1)c1ccccc1 [Example 51]"
  IC50, µM: 0.41

Result for N#Cc1cnc2cnc(NCCN3CCOCC3)cc2c1Nc1ccc(Nc2ccccc2)cc1 [Example 10] , tested on human Cot/Tpl2 kinase (Homo sapiens), IC50: 7.6

---

- target.of.assay: human Cot/Tpl2 kinase (Homo sapiens, UniProt P41279)
- Construct: human Cot/Tpl2 kinase construct encoding residues 30-398; 6His (N); made in house; host or cells: Sf9 insect cells (baculovirus system, BD Biosciences)
- protocol.description: Tpl2/Cot kinase assay, GST-MEK1 phosphorylation detected by ELISA (DELFIA Eu)
- Type: biochemical
- assay.conditions: Table 2; additional representative compounds
observation.type: IC50 (nM)
Give bare numbers, in nM.

- structure.smiles.string: "CS(=O)(=O)c1ccc(CNc2cc3c(Nc4ccc(F)c(Cl)c4)c(C#N)cnc3cn2)cc1"
  IC50 (nM): 23
- structure.smiles.string: "CCN1CCC[C@H]1CNc1cc2c(NC3CCCC3)c(C#N)cnc2cn1"
  IC50 (nM): 2800

# evaluate next
In plain terms, N#Cc1cnc2cnc(NCCN3CCN(Cc4ccccc4)CC3)cc2c1Nc1ccc(F)c(Cl)c1 has a documented IC50 of 2400

---

- target.of.assay: human Cot/Tpl2 kinase (Homo sapiens)
- Construct: human Cot/Tpl2 kinase construct encoding residues 30-398; 6His (N); made in house; host or cells: Sf9 insect cells (baculovirus system, BD Biosciences)
- protocol.description: Tpl2/Cot kinase assay, GST-MEK1 phosphorylation detected by ELISA (DELFIA Eu)
- Format: biochemical
- assay.conditions: Table 1; 0.4 nM Tpl2, 35 nM GST-MEK1, 50 uM ATP, 1 h at 30° C.
Exercise: state measured pIC50 for each of the molecules provided.
One number for each entry, as −log10 of the molar value.

- molecule: "N#Cc1cnc2cnc(Nc3ccc(F)c(Cl)c3)cc2c1NC1CCCC1 [Example 92]"
  quantitative.readout: 5.10

Dear colleague, could you please provide pIC50 for the molecules listed below?
1. CN(C)CCCNc1cc2c(Nc3ccc(F)c(Cl)c3)c(C#N)cnc2cn1 [Example 48]
2. CCN1CCC[C@@H]1CNc1cc2c(Nc3ccc(F)c(Cl)c3)c(C#N)cnc2cn1 [Example 75]
3. N#Cc1cnc2cnc(NCc3ccccc3)cc2c1Nc1ccc(F)c(Cl)c1 [Example 47]

Result:
1. 5.30
2. 5.15
3. 7.00

---

Exercise: state measured IC50 for each of the compounds provided.
- target.of.assay: human Cot/Tpl2 kinase (Homo sapiens, UniProt P41279)
- Construct: human Cot/Tpl2 kinase construct encoding residues 30-398; 6His (N); made in house; host or cells: Sf9 insect cells (baculovirus system, BD Biosciences)
- protocol.description: Tpl2/Cot kinase assay, GST-MEK1 phosphorylation detected by ELISA (DELFIA Eu)
- Assay type: biochemical
- assay.conditions: Table 1; 0.4 nM Tpl2, 35 nM GST-MEK1, 50 uM ATP, 1 h at 30° C.
Answers are plain numbers, in µM.

Worked cases, answers included:
- structure.smiles.string: "N#Cc1cnc2cnc(NCc3c(N)cccc3F)cc2c1Nc1ccc(F)c(Cl)c1"
  units.text: "µM"
  IC50: 10.5
- structure.smiles.string: "N#Cc1cnc2cnc(NCCN3CCOCC3)cc2c1Nc1cccc(F)c1"
  units.text: "µM"
  IC50: 1.12

# evaluate next
In plain terms, N#Cc1cnc2cnc(NCCN3CCOCC3)cc2c1Nc1ccc(F)cc1 has a documented IC50 of 10.7

---

- target.of.assay: human Cot/Tpl2 kinase (Homo sapiens)
- Construct: human Cot/Tpl2 kinase construct encoding residues 30-398; 6His (N); made in house; host or cells: Sf9 insect cells (baculovirus system, BD Biosciences)
- protocol.description: Tpl2/Cot kinase assay, GST-MEK1 phosphorylation detected by ELISA (DELFIA Eu)
- Assay type: biochemical
- assay.conditions: Table 1; 0.4 nM Tpl2, 35 nM GST-MEK1, 50 uM ATP, 1 h at 30° C.
observation.type: IC50 (nM)
Numbers only, in nM.

- structure.smiles.string: "N#Cc1cnc2cnc(N[C@@H]3CCc4ccccc43)cc2c1Nc1ccc(F)c(Cl)c1"
  target.of.assay: "human Cot/Tpl2 kinase (Homo sapiens)"
  IC50 [nM]: 430

# evaluate next
In plain terms, CN1CCN(CCCNc2cc3c(Nc4ccc(Cc5ccccc5)cc4)c(C#N)cnc3cn2)CC1 has a documented IC50 of 79

---

- target.of.assay: human Cot/Tpl2 kinase (Homo sapiens)
- Construct: human Cot/Tpl2 kinase construct encoding residues 30-398; 6His (N); made in house; host or cells: Sf9 insect cells (baculovirus system, BD Biosciences)
- protocol.description: Tpl2/Cot kinase assay, GST-MEK1 phosphorylation detected by ELISA (DELFIA Eu)
- Format: biochemical
- assay.conditions: Table 1; 0.4 nM Tpl2, 35 nM GST-MEK1, 50 uM ATP, 1 h at 30° C.
observation.type: IC50 (nM)
Numbers only, in nM.

Worked cases, answers included:
- molecule: "N#Cc1cnc2cnc(NCCN3CCOCC3)cc2c1Nc1ccc(C(=O)c2ccccc2)cc1 [Example 27]"
  quantitative.readout: 4600
- molecule: "N#Cc1cnc2cnc(N)cc2c1Nc1ccc(F)c(Cl)c1 [Example 35]"
  quantitative.readout: 5000

Dear colleague, could you please provide IC50 for the molecules listed below?
1. N#Cc1cnc2cnc(NCCN3CCOCC3)cc2c1Nc1cc(Cl)cc(Cl)c1 [Example 67]
2. N#Cc1cnc2cnc(N[C@@H]3CCCc4ccccc43)cc2c1Nc1ccc(F)c(Cl)c1 [Example 70]
3. N#Cc1cnc2cnc(NCCN3CCOCC3)cc2c1Nc1ccc(Oc2ccccc2)cc1 [Example 41]
4. CCN1CCC[C@H]1CNc1cc2c(Nc3ccc(F)c(Cl)c3)c(C#N)cnc2cn1 [Example 74]
5. CN(C)CCNc1cc2c(Nc3ccc(Cc4ccccc4)cc3)c(C#N)cnc2cn1 [Example 23]

Result:
1. 4200
2. 1500
3. 300
4. 180
5. 36

Dear colleague, could you please provide IC50 for the molecules listed below?
1. C[C@@H](Nc1cc2c(Nc3ccc(F)c(Cl)c3)c(C#N)cnc2cn1)c1ccccc1 [Example 59]
2. C[C@H](Nc1cc2c(Nc3ccc(F)c(Cl)c3)c(C#N)cnc2cn1)[C@H](O)c1ccccc1 [Example 54]
3. N#Cc1cnc2cnc(NCCN3CCOCC3)cc2c1Nc1cccc(I)c1 [Example 78]
4. N#Cc1cnc2cnc(NCc3cccnc3)cc2c1Nc1ccc(F)cc1 [Example 9]
5. N#Cc1cnc2cnc(NCCN3CCOCC3)cc2c1Nc1ccc(Cc2ccccc2)cc1 [Example 7]

Result:
12
1300
7100
1700
8
